# Tested on: Danio rerio Tg(wt1b:EGFP) embryo, pronephros
# protocol text: pronephric angle neck segment to proximal convoluted tubule (mean of left and right), fold change vs DMSO control; higher = larger pronephric angle
# assay setup: 25 µM; exposure: 24-48 hpf
Structures can show the parent of a compound that is named as a salt.
recorded endpoint: pronephric angle neck segment
Lab note: record the figure alone, no unit after it.

Incoming: Identify measured pronephric angle neck segment associated with CC(=O)O[C@]1(C(C)=O)CC[C@H]2[C@@H]3C=C(C)C4=CC(=O)CC[C@@H]4[C@H]3CC[C@@]21C [Nomegestrol acetate]
Outgoing: 1.13

Incoming: Output pronephric angle neck segment of Nc1ccc(/N=N/c2ccccc2)c(N)n1 [Phenazopyridine hydrochloride]
Outgoing: 1.1

Incoming: Identify measured pronephric angle neck segment corresponding to CC[C@@H](CO)NCCN[C@@H](CC)CO [Ethambutol dihydrochloride]
Outgoing: 1.02

Incoming: Hello, please tell me recorded pronephric angle neck segment for this one: Clc1ccc(Cn2c(CN3CCCC3)nc3ccccc32)cc1 [Clemizole hydrochloride]
Outgoing: 1.02

---

# Tested on: Danio rerio Tg(wt1b:EGFP) embryo, pronephros
# protocol text: glomerular width (mean of left and right), fold change vs DMSO control; higher = wider glomerulus
# assay setup: 25 µM; exposure: 24-48 hpf
Structures can show the parent of a compound that is named as a salt.
Please go through the items and note down their glomerular width.
Keep it simple and answer with nothing but the number.

Incoming: Respond only with glomerular width recorded for `Cn1c(=O)c2c(ncn2CC(=O)O)n(C)c1=O`
Outgoing: 1

Incoming: Output glomerular width of CCc1c(C)[nH]c2c1C(=O)C(CN1CCOCC1)CC2 (configuration not stated) [Molindone hydrochloride]
Outgoing: 1

Incoming: Hello, please tell me recorded glomerular width for this one: `CC(C)C[C@H](NC(=O)[C@@H](O)[C@H](N)Cc1ccccc1)C(=O)O`
Outgoing: 1.01

Incoming: Given `NCCCC[C@H](N[C@@H](CCc1ccccc1)C(=O)O)C(=O)N1CCC[C@H]1C(=O)O` , respond with its glomerular width.
Outgoing: 0.998

Incoming: Please look at this compound and report its glomerular width: `COc1nc(N)nc2c1ncn2[C@@H]1O[C@H](CO)[C@@H](O)[C@@H]1O`
Outgoing: 0.992

Incoming: Report measured glomerular width; entry is O=C(OCC(O)CO)c1ccccc1Nc1ccnc2cc(Cl)ccc12 (configuration not stated) [Glafenine hydrochloride]
Outgoing: 1.02

Incoming: Supply recorded glomerular width for Cc1ccc(C(=O)c2ccc(CC(=O)O)n2C)cc1 [Tolmetin sodium salt dihydrate] here.
Outgoing: 1.01

---

# System: Danio rerio Tg(wt1b:EGFP) embryo, pronephros
# protocol text: glomerular separation, fold change vs DMSO control; higher = glomeruli further apart (abnormal)
# assay setup: 25 µM; exposure: 24-48 hpf
Where a name gives a salt, the structure may show the parent alone.
Answer each item with its documented glomerular separation.
Simply state the number, no unit and no words.

Incoming: Give the value of glomerular separation reported for the following: O=C(c1ccc(F)cc1)C1CCN(CCn2c(=O)[nH]c3ccccc3c2=O)CC1 [Ketanserin tartrate hydrate]
Outgoing: 0.846

Incoming: Provide measured glomerular separation value, entry: `COc1c(N2C[C@@H]3CCCN[C@@H]3C2)c(F)cc2c(=O)c(C(=O)O)cn(C3CC3)c12`
Outgoing: 0.919

Incoming: Quickly give me recorded glomerular separation for CCCCCN(C)CCC(O)(P(=O)(O)O)P(=O)(O)O [Ibandronate sodium]
Outgoing: 0.837

Incoming: Look up and state reported glomerular separation for COc1cccc(N(C)C(=S)Oc2ccc3c(c2)CCCC3)n1 [Liranaftate]
Outgoing: 1.14

Incoming: Give the measured glomerular separation for Cc1ccccc1N1C(=O)c2cc(S(N)(=O)=O)c(Cl)cc2NC1C (stereo not drawn)
Outgoing: 0.86

Incoming: Input CC(C)N1CCN(c2ccc(OCC3COC(Cn4cncn4)(c4ccc(Cl)cc4Cl)O3)cc2)CC1 (stereo not drawn) , output reported glomerular separation.
Outgoing: 0.864

Incoming: Complete the entry with glomerular separation for `C[C@@H](O)[C@H]1C(=O)N2C(C(=O)O)=C(S[C@@H]3CN[C@H](C(=O)N(C)C)C3)[C@H](C)[C@H]12`
Outgoing: 1.03

Incoming: Look up and state reported glomerular separation for CC(C)NC[C@@H](O)COc1cccc2ccccc12 [(R)-Propranolol hydrochloride]
Outgoing: 1.07

Incoming: Report glomerular separation, nothing else, for this compound: `CCn1cc(C(=O)O)c(=O)c2cnc(N3CCNCC3)nc21`
Outgoing: 0.919

Incoming: # return recorded glomerular separation for entry `Oc1ccc(OCc2ccccc2)cc1`
Outgoing: 2.85

Incoming: Read off the recorded glomerular separation for NCCc1cc[nH]n1 [Betazole hydrochloride]
Outgoing: 1.28

Incoming: Give the value of glomerular separation reported for the following: CCCOc1ccc(C(=O)OCCN(CC)CC)cc1N [Proparacaine hydrochloride]
Outgoing: 0.768

Incoming: Consider the compound CC(C)(Oc1ccc(CCNC(=O)c2ccc(Cl)cc2)cc1)C(=O)O [Bezafibrate] . State its measured glomerular separation.
Outgoing: 0.842

Incoming: Identify measured glomerular separation associated with CN1CCCN=C1/C=C/c1cccc(O)c1 [Oxantel pamoate]
Outgoing: 0.88

Incoming: Tell us which glomerular separation value is on record for Cc1cc(C(C)(C)C)cc(C)c1CC1=NCCN1 [Xylometazoline hydrochloride]
Outgoing: 1.11

Incoming: Tell me measured glomerular separation for CN(C)CCN(Cc1cccs1)c1ccccn1 [Methapyrilene hydrochloride] please.
Outgoing: 0.984

Incoming: Output measured glomerular separation for this item: CS(=O)(=O)Nc1ccc([N+](=O)[O-])cc1Oc1ccccc1 [Nimesulide]
Outgoing: 3.39

Incoming: Please report the measured glomerular separation for NCCCC(O)(P(=O)(O)O)P(=O)(O)O [Alendronate sodium]
Outgoing: 0.796

---

# System: Danio rerio Tg(wt1b:EGFP) embryo, pronephros
# protocol text: pronephric angle neck segment to proximal convoluted tubule (mean of left and right), fold change vs DMSO control; higher = larger pronephric angle
# assay setup: 25 µM; exposure: 24-48 hpf
recorded endpoint: pronephric angle neck segment

Incoming: Supply measured pronephric angle neck segment of O=c1[nH]c(=O)n(C2CCCO2)cc1F (stereo not drawn) in your reply.
Outgoing: 0.991

Incoming: Indicate its recorded pronephric angle neck segment; the compound in question is `C[C@]1(Cn2ccnn2)[C@H](C(=O)O)N2C(=O)C[C@H]2S1(=O)=O`
Outgoing: 0.985

Incoming: For `CC(=O)Oc1cc(C(F)(F)F)ccc1C(=O)O` , write its pronephric angle neck segment.
Outgoing: 1.02

---

# Test system: Danio rerio Tg(wt1b:EGFP) embryo, pronephros
# protocol text: pronephric angle neck segment to proximal convoluted tubule (mean of left and right), fold change vs DMSO control; higher = larger pronephric angle
# assay setup: 25 µM; exposure: 24-48 hpf
Counter-ions that a name gives are not always drawn.
Task for the reader: assign each of the following molecules its reported pronephric angle neck segment.
Respond using a number only.

Incoming: Identify measured pronephric angle neck segment obtained with Danio rerio Tg(wt1b:EGFP) embryo, pronephros for COc1cc(N)c(Cl)cc1C(=O)NC1CCN(CCCOc2ccc(F)cc2)CC1OC (stereo unspecified) [Cisapride] .
Outgoing: 0.992

Incoming: Output reported pronephric angle neck segment of the molecule c1ccc([C@H]2CN3CCSC3=N2)cc1 [Levamisole hydrochloride] on Danio rerio Tg(wt1b:EGFP) embryo, pronephros.
Outgoing: 0.979

Incoming: Look up Danio rerio Tg(wt1b:EGFP) embryo, pronephros data: pronephric angle neck segment of CC(C)NC[C@@H](O)COc1ccc(CC(N)=O)cc1 [(R)-(+)-Atenolol] , then report it.
Outgoing: 0.977

Incoming: Give the observed pronephric angle neck segment of C[C@]12C=CC(=O)C=C1CC[C@H]1[C@@H]3C[C@@H](O)[C@](O)(C(=O)CO)[C@@]3(C)C[C@H](O)[C@@]12F [Triamcinolone] for Danio rerio Tg(wt1b:EGFP) embryo, pronephros.
Outgoing: 1.12

Incoming: Param request: pronephric angle neck segment | system Danio rerio Tg(wt1b:EGFP) embryo, pronephros | item CCOC(=O)[N-]c1c[n+](N2CCOCC2)no1 [Molsidomine]
Outgoing: 0.982

Incoming: State, for Danio rerio Tg(wt1b:EGFP) embryo, pronephros, measured pronephric angle neck segment of the molecule listed here: Clc1ccccc1CN1CCc2sccc2C1 [Ticlopidine hydrochloride]
Outgoing: 1.01

Incoming: Under Danio rerio Tg(wt1b:EGFP) embryo, pronephros: report pronephric angle neck segment of CC(c1cc2ccccc2s1)N(O)C(N)=O (stereo unspecified) [Zileuton] .
Outgoing: 1.11

Incoming: Determine reported pronephric angle neck segment for CCCCC[C@H](O)/C=C/[C@H]1[C@H](O)CC(=O)[C@@H]1CCCCCCC(=O)O [Alprostadil] ; test system: Danio rerio Tg(wt1b:EGFP) embryo, pronephros.
Outgoing: 1.09

Incoming: Lab note: Danio rerio Tg(wt1b:EGFP) embryo, pronephros assay, enter pronephric angle neck segment for C[C@H]1O[C@@H](O[C@H]2[C@@H](O)C[C@H](O[C@H]3[C@@H](O)C[C@H](O[C@H]4CC[C@@]5(C)[C@H](CC[C@@H]6[C@@H]5C[C@@H](O)[C@]5(C)[C@@H](C7=CC(=O)OC7)CC[C@]65O)C4)O[C@@H]3C)O[C@@H]2C)C[C@H](O)[C@@H]1O [Digoxin] here
Outgoing: 0.934

Incoming: Write down measured pronephric angle neck segment (Danio rerio Tg(wt1b:EGFP) embryo, pronephros) for this molecule. Cc1ccc(S(=O)(=O)NC(=O)NN2CCCCCC2)cc1 [Tolazamide]
Outgoing: 0.972

Incoming: Name the value of pronephric angle neck segment reported for CCOC(=O)OC(C)OC1=C(C(=O)Nc2ccccn2)N(C)S(=O)(=O)c2ccccc21 (stereo unspecified) [Ampiroxicam] when tested on Danio rerio Tg(wt1b:EGFP) embryo, pronephros.
Outgoing: 0.963
